Reported IC50 against BTK (Homo sapiens), gathered from multiple publications, appears below.

> print(dat)
                                   molecule      result
1  Cc1cc(-c2nccn3nccc23)ccc1CNC(=O)c1noc(C(C)(C)C)n1  1 to 10 nM
2  C=CC(=O)N1CCC(n2cc(C(N)=O)c(-c3ccc(Oc4ccccc4)cc3)n2)C1 (stereo not shown)    < 500 nM
3  CN(C1CCCC1)S(=O)(=O)c1ccccc1NCC(=O)N[C@@H]1CCCN(c2ncnc3[nH]ncc23)C1    < 100 nM
4  COc1cc(OC)cc(C(=O)c2c[nH]c3ncc(-c4cccc(NC(C)=O)c4)cc23)c1  ≤ 10000 nM
5  N#CN1CCC[C@@H](n2cc(-c3ccc(Oc4ccccc4F)cc3)c3c(N)n[nH]c(=O)c32)C1     ≤ 10 nM
6  Cc1cc(-c2ccnc(Nc3cn[nH]c3)n2)ccc1CNC(=O)N1CC(OC(C)C)C1     < 10 nM
7  NC(=O)c1nnc2c(-c3ccc4nc(C5CCC(F)(F)CC5)[nH]c4c3)cccc2c1N      398 nM
8  C=CC(=O)N1CCC(Nc2cncc(-c3cnc(Oc4cccc(Cl)c4)nc3)n2)CC1     6.11 nM

Entry Cc1cc(-c2ccnc(Nc3cnn(C)c3)n2)ccc1CNC(=O)c1cc2c(s1)CCNC2 under BTK (Homo sapiens) had IC50 of < 10 nM

Entry Cn1ncc2c(NCC(=O)NC3CCCN(c4ncnc5[nH]ccc45)C3)cccc21 (stereo not shown) under BTK (Homo sapiens) had IC50 of 1000 to 10000 nM

Entry C=CC(=O)N1CCCC(n2nc(-c3ccc(Oc4ccccc4)cc3)c3c(N)ncc(Br)c32)C1 (stereo not shown) under BTK (Homo sapiens) had IC50 of 2.1 nM

Entry Cc1cc(NC(=O)/C=C/CN(C)C2CC2)cc(-n2c(=O)n(-c3ccc(Oc4ccccc4)cc3C)c3c(N)ncnc32)c1 under BTK (Homo sapiens) had IC50 of < 100 nM

Entry C#CC(=O)N1CCC[C@H](Nc2cc(OC3CCN(C)CC3)cc(Nc3ncc(C)s3)n2)C1 under BTK (Homo sapiens) had IC50 of 10.3 nM

====

pIC50: −log10 of the molar value.
Reported pIC50 against BTK (Homo sapiens, UniProt Q06187), gathered from multiple publications, appears below.
Sequence (Q06187 whole entry): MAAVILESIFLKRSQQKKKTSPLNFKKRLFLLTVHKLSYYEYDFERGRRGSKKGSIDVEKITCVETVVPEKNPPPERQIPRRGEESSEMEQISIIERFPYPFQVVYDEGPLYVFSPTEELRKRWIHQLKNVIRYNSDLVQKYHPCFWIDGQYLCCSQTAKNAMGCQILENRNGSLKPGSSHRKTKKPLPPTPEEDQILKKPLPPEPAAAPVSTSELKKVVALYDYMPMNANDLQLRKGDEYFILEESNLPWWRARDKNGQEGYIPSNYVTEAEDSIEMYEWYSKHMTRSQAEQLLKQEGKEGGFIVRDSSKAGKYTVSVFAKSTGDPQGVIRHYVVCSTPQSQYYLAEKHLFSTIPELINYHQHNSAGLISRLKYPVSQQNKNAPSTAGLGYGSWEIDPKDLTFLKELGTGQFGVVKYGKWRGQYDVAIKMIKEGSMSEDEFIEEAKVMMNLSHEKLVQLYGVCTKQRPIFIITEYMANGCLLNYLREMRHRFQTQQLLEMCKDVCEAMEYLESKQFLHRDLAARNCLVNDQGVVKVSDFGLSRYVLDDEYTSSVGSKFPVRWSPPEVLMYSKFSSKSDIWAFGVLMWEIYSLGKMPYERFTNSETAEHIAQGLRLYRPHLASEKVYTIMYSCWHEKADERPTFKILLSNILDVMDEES

> print(dat)
                                   compound        result
1  C=CC(=O)N1CCN(c2ccc(C(N)=O)c(-c3ccc(C)c(OC)c3)n2)CC1        > 6.30
2  C=CC(=O)Nc1cccc(-c2cc(-c3ccc(C(=O)Nc4ccccn4)cc3Cl)c(N)c3cncnc23)c1        > 7.00
3  Cn1ccc2cc(-c3cccc4c(N)c(C(N)=O)nnc34)ccc21          5.40
4  Cc1cc(-c2cc(Nc3cc4n(n3)CCN(C)C4)ncn2)ccc1CNC(=O)c1cnn(C(C)(C)C)c1        > 8.00
5  C=CC(=O)N1CCCC(n2cc(-c3ccc(Oc4ccc(Cl)cc4)cc3)c3c(N)n[nH]c(=O)c32)C1 (stereo not shown)  6.00 to 8.00

Entry C=CC(=O)Nc1cccc(Oc2nc(Nc3ccc(CC(=O)NC4CCN(C)CC4)cc3)nc3ccsc23)c1 under BTK (Homo sapiens, UniProt Q06187) had pIC50 of ≥ 7.30

Entry CC(O)c1cccc(NCC(=O)N[C@@H]2CCCN(c3ncnc4[nH]ccc34)C2)c1 (stereo partly shown) under BTK (Homo sapiens, UniProt Q06187) had pIC50 of 5.00 to 6.00

Entry C=CC(=O)N1CCc2c(cccc2-c2c(C)nc(C(N)=O)c3[nH]c4c(c23)CC2(CC4)CC2)C1 under BTK (Homo sapiens, UniProt Q06187) had pIC50 of ≤ 7.00

Entry C=CC(=O)N1CCC(c2nc(-c3ccc(C(=O)Nc4ccccn4)cc3)n3c(N)nccc23)C1 (stereo not shown) under BTK (Homo sapiens, UniProt Q06187) had pIC50 of > 7.00
